# inhibition (INH) per entry
- Tested on: Streptococcus pyogenes
- test.details: Antibacterial activity against Streptococcus pyogenes ATCC 19615; note: test concentration or dose not given here
- Type: functional

molecule	inhibition (INH)
CCCCCC/C=C\C#CC#CCCCCC(O)C(=O)OC (configuration not stated)	>75%

Consider `CCCC#CC#CC#CCCCCC[C@@H]1O[C@](C)(OC)[C@@](C)(OC)OC1=O` . Its measured inhibition (INH) is >75%

Consider CCCCC#CC#C/C=C/CCCCCCC(O)C(=O)NCc1ccccc1 (configuration not stated) . Its measured inhibition (INH) is >75%

Consider CCCC/C=C\C#CC#CCCCCCC(O)C(=O)NCC(C)C (configuration not stated) . Its measured inhibition (INH) is >75%

Consider `CCCCC#CC#C/C=C/CCCCCC[C@@H]1O[C@](C)(OC)[C@@](C)(OC)OC1=O` . Its measured inhibition (INH) is >75%

Consider CCCC#C/C=C\C#CCCCCCC(O)C(=O)OCCCc1ccccc1 (configuration not stated) . Its measured inhibition (INH) is >75%

Consider CCCCC#C/C=C\C#CCCCCCCC(O)C(=O)O (configuration not stated) . Its measured inhibition (INH) is >75%

Consider CCCCCC#CC#C/C=C/CCCCCC(O)C(=O)O (configuration not stated) . Its measured inhibition (INH) is 50%

Consider CCCC#CC#CC#CCCCCCC(O)C(=O)O (configuration not stated) . Its measured inhibition (INH) is >75%

Consider CCCCCC#CC#C/C=C/CCCCCC(O)C(=O)OC (configuration not stated) . Its measured inhibition (INH) is >75%

Consider CCCCC#CC#C/C=C/CCCCCCC(O)C(=O)O (configuration not stated) . Its measured inhibition (INH) is 25%

Consider `CCCCCC#C/C=C\C#CC[C@@H]1O[C@](C)(OC)[C@@](C)(OC)OC1=O` . Its measured inhibition (INH) is >75%

Attribution: ChEMBL document CHEMBL1208723
